- assayedTarget: CK1α (Homo sapiens, UniProt P48729)
- Construct: purchased Carna Biosciences
- Sequence (P48729 whole entry): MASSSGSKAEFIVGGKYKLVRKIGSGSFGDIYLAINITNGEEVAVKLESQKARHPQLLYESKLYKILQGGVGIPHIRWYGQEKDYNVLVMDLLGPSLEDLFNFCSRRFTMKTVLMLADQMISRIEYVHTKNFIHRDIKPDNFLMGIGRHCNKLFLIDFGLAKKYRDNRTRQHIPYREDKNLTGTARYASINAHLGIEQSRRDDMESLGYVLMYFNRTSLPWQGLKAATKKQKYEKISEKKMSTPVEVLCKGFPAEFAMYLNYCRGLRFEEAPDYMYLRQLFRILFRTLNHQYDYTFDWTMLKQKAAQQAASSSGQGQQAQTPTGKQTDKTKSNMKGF
- experimentDescription: Kinase panel profiling at 1 µmol/L (mobility shift assay, Carna)
- Type: biochemical
- conditionParameters: 1 µmol/L of BTK inhibitor
I'd appreciate it if you could supply Percentage inhibition of kinase enzyme activity values for the items below.
Give bare numbers, in %.

Past entries and their recorded results:
molecule="O=C(c1ccc(Oc2ccccc2)cc1Cl)c1c[nH]c2ncnc(N[C@@H]3CC[C@@H](CO)OC3)c12 [nemtabrutinib]" valueunits=% testresult=33.46
molecule="COc1ccc(F)cc1C(=O)NCc1ccc(-c2nn([C@@H](C)C(F)(F)F)c(N)c2C(N)=O)cc1 [pirtobrutinib]" valueunits=% testresult=9.63

Okay, here is my list. What is Percentage inhibition of kinase enzyme activity for each of these?
1. CC#CC(=O)N1CCC[C@H]1c1nc(-c2ccc(C(=O)Nc3ccccn3)cc2)c2c(N)nccn12 [acalabrutinib]
2. C=CC(=O)N1CCC[C@@H](n2nc(-c3ccc(Oc4ccccc4)cc3)c3c(N)ncnc32)C1 [ibrutinib]

1: 10.47; 2: -1.93
